- Target: T1, human serum albumin (human, UniProt P02768 25-609)
- T1 construct: also called HSA
- Test Method Notes: SPR (Biacore), off-rate pH 7.4 over pH 5.5
Binarize Ratio Kd at 3; below is true, at or above is false.

Reference set, count: 5
{"Binder": "2C10 (VHH) VHH: QLQLVESGGGLVQAGGSLRLSCAASGRTFSSYAMGWFRQAPGKEREFVAVISWSGGSTYYADSVKGRFTISGDNAKNTVYLQMNSLKPEDTAVYYCATEGPKWEPYNGIYSPADFGSWGQGTQVTVSS", "Class Name": "true"}
{"Binder": "2B03 (VHH) VHH: QLQLVESGGGLVQAGGSLRLSCAASGRAISSYVMAWFRQAPGKEREFVTSINWSGGSTYYAHSVKGRFTISRDNAKNTVYLQMNTLKPEDTAVYYCAADLYGLGYEVMSYDYWGQGTQVTVSS", "Class Name": "false"}
{"Binder": "9E10 (VHH) VHH: QLQVVESGGGLVQAGGSLRLSCTTSGRAFIGYAMGWFRQAPGKEREFVAAISWFAGDTTDYANSVKGRFTISRDNAKNTVYLQMNSLKPEDTAVYVCAASSARPLSSRSDEYHYWGQGTQVTVSS", "Class Name": "true"}
{"Binder": "1E04 (VHH) VHH: QLQLVESGGGLVQTGGSLRLSCAASGRTFSNYNAGWFRQVPGKEPEFVAAINWSGGTTYYADSVKGRFTISRDNAKNTVYLQMNSLKPEDTAVYYCAADPDWSILNPREYDYWGQGTRVTVSS", "Class Name": "true"}
{"Binder": "9F02 (VHH) VHH: EVQLVESGGGLVQAGGSLRLSCTASRRAFIGYAMGWFRQAPGKEREFVAAISWFAGDTTDYADSVKGRFTISRDNAKNTVYLQMNGLKPEDTAVYVCAASSARPMSGRSDEYHYWGQGTQVTVSS", "Class Name": "true"}

Asked: Does the reported Ratio Kd of 2H11 (VHH, also called 2H11 parental (VHH)) VHH: ELQVVESGGGLVQAGGSLRLSCAASGRTFRSNTMGWFRQAPGKEREFVAAITWSGGTTYYADSVKGRFAISGDNAKNTVYLQMNSLKPEDTAVYYCAAEGPKWEPWNGIYHPADFGSWGQGTQVTVSS stay below 3?
Given back: false

Asked: Bench note: check whether 4G12 (VHH) VHH: QLQLVESGGGLVQAGGSLRLSCVASGRSFSTYGMGWFRQAPGAEREFAAAINWKGDRYYADSVKGRFTISRDNAKNTVFLEMNSLKPEDTGVYYCAADSDGSAFSRRLEYDYWGQGTQVTVSS shows Ratio Kd below 3
Given back: true
